# system name: UniProt Q9NPD5
# Sequence (Q9NPD5 whole entry): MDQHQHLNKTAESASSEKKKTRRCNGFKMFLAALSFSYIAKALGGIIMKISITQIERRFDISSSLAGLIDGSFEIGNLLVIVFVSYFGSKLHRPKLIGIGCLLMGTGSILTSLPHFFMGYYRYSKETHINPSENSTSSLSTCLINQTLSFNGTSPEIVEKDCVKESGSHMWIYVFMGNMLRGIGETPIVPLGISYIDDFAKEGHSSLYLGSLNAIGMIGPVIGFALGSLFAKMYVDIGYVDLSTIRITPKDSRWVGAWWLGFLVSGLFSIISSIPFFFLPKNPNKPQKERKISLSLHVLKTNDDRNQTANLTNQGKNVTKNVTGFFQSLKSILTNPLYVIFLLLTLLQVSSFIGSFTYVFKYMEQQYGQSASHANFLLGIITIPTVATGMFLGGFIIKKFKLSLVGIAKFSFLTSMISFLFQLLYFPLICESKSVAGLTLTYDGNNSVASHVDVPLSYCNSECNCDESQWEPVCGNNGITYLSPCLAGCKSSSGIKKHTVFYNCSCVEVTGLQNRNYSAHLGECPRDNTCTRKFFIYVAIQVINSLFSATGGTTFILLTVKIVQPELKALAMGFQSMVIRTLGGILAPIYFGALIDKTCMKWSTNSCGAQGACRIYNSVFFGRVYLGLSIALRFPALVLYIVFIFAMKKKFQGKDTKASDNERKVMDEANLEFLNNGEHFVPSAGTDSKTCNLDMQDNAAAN
Consider the following molecules; for each one, report its pKi.
Lab note — pKi values are minus log10 of concentrations in M.

For record CC[C@]1(O)C[C@@H]2CN(CCc3c([nH]c4ccccc34)[C@@](C(=O)OC)(c3cc4c(cc3OC)N(C)[C@H]3[C@@](O)(C(=O)OC)[C@H](OC(C)=O)[C@]5(CC)C=CCN6CC[C@]43[C@@H]65)C2)C1 the listed pKi is 4.73

# pKi (molecule: CC[C@]1(O)C[C@H]2CN(CCc3c([nH]c4ccccc34)[C@@](C(=O)OC)(c3cc4c(cc3OC)N(C=O)[C@H]3[C@@](O)(C(=O)OC)[C@H](OC(C)=O)[C@]5(CC)C=CCN6CC[C@]43[C@@H]65)C2)C1 ) is 4.75
